test system: Bacillus subtilis DB104 (SP-AmyQ fusion secretion); experiment: AmyQ secretion efficiency, weighted average sort bin (1 = best secretion, 10 = worst) (bin number (weighted average, 1-10)); higher = lower secretion efficiency
Listed here are sequences together with their documented AmyQ secretion efficiency.

Prompt line: Provide the reported AmyQ secretion efficiency (system: Bacillus subtilis DB104 (SP-AmyQ fusion secretion)) for MKRRFMKASLVLFAVVFVFAVKGAPAKAETH
Response line: 2.6

Prompt line: Provide the reported AmyQ secretion efficiency (system: Bacillus subtilis DB104 (SP-AmyQ fusion secretion)) for MKRLTLVCSIVFILRKLFYRLKIGTIPIQKLPVYKASAKTA
Response line: 6.99

Prompt line: Provide the reported AmyQ secretion efficiency (system: Bacillus subtilis DB104 (SP-AmyQ fusion secretion)) for MKSKWMSGLLLVAVGFSFTQVMAHAGET
Response line: 7.06

Prompt line: Provide the reported AmyQ secretion efficiency (system: Bacillus subtilis DB104 (SP-AmyQ fusion secretion)) for MKLKSKLLLSCLALSTVFVRKRIANAPTH
Response line: 6.91

Prompt line: Provide the reported AmyQ secretion efficiency (system: Bacillus subtilis DB104 (SP-AmyQ fusion secretion)) for MKRIRIPMTLALGAALTIAPLSFWSAEEN
Response line: 6.56

Continuing:
Prompt line: Provide the reported AmyQ secretion efficiency (system: Bacillus subtilis DB104 (SP-AmyQ fusion secretion)) for MVKKWLIQFAVMLSVLSKKRRKKASAVGV
Response line: 7.67

Prompt line: Provide the reported AmyQ secretion efficiency (system: Bacillus subtilis DB104 (SP-AmyQ fusion secretion)) for MRFTKVVGFLSVLGLAASSILLLFSIVFPLTAQAEKA
Response line: 2.15

Prompt line: Provide the reported AmyQ secretion efficiency (system: Bacillus subtilis DB104 (SP-AmyQ fusion secretion)) for MKWMCSICCAAVLLAGGAAQTEAV
Response line: 3.03

Prompt line: Provide the reported AmyQ secretion efficiency (system: Bacillus subtilis DB104 (SP-AmyQ fusion secretion)) for MAIIIAIIAAVIVIAALITFNVGGSPVVSTSTARNASPG
Response line: 3.35

Prompt line: Provide the reported AmyQ secretion efficiency (system: Bacillus subtilis DB104 (SP-AmyQ fusion secretion)) for MKKLLAAGIIGLLTVSIASPMFAAEK
Response line: 3.35

Prompt line: Provide the reported AmyQ secretion efficiency (system: Bacillus subtilis DB104 (SP-AmyQ fusion secretion)) for MFKKHTISLLIIFLLASAVLAKPLEAHTV
Response line: 2.46

Prompt line: Provide the reported AmyQ secretion efficiency (system: Bacillus subtilis DB104 (SP-AmyQ fusion secretion)) for MKKKQVMLALTAAAGLGLTALHSAPANKAAPL
Response line: 5.6

Prompt line: Provide the reported AmyQ secretion efficiency (system: Bacillus subtilis DB104 (SP-AmyQ fusion secretion)) for MGLGKKLSVAVAASFMSLSISLPGCQAAEG
Response line: 1.48
